Data provenance: patent US20200147235A1

Target: T1, Human CD98 ECD with C-terminal His-tag (human, UniProt P08195 105-529)
T1 construct: The entry includes the linker and the polyhistidine tag; also called huCD98 ECD
T1 sequence: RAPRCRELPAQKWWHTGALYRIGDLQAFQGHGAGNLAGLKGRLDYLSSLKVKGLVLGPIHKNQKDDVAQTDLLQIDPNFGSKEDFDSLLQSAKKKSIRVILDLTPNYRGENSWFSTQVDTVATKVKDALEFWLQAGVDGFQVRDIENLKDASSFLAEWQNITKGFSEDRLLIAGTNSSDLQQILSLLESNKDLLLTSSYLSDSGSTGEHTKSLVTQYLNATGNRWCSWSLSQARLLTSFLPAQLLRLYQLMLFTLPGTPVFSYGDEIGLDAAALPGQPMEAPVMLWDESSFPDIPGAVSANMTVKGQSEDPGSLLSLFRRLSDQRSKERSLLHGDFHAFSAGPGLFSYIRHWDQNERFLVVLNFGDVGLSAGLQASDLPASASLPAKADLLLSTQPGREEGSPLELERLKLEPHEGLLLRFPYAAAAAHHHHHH
Assay: SPR (Biacore), antibody captured on anti-Fc surface, CD98 ECD in solution
Measured kon accompanies every entry in the list below.
# unit: M⁻¹ s⁻¹ | format: bare number

Record excerpt, results attached:
huAb15v3 (antibody, V domains shown, Humanized, further engineered clone of chAb15, converted to IgG and expressed as a full-length antibody) VH: EVQLVESGGGVVQPGRSLRLSCAASGFTFSDYTMAWVRQAPGKGLEWVATIIYSGRGTYYRDAVKGRFTISRDNSKSTLYLQMNSLRAEDTAVYYCARQSDDTYYYWGYFDYWGQGTMVTVSS VL: DIVMTQSPDSLAVSLGERATINCKSSQSLLFSGNQKNYLAWYQQKPGQSPKLLIYWASTRQSGVPDRFSGSGSGTDFTLTIRSLQAEDVAIYYCQQYYGSPYTFGQGTKLEIK; 44000
huAb15v6 (antibody, V domains shown, Humanized, further engineered clone of chAb15, converted to IgG and expressed as a full-length antibody) VH: EVQLVESGGGVVQPGRSLRLSCAASGFTFSDYTMAWVRQAPGKGLEWVATIIYDARGTYYRDAVKGRFTISRDNSKSTLYLQMNSLRAEDTAVYYCARQSDDTYYYWGYFDYWGQGTMVTVSS VL: DIVMTQSPDSLAVSLGERATINCKSSQSLLFSGNQKNYLAWYQQKPGQSPKLLIYWASTRQSGVPDRFSGSGSGTDFTLTIRSLQAEDVAIYYCQQYYSSPYTFGQGTKLEIK; 38000
huAb15v5 (antibody, V domains shown, Humanized, further engineered clone of chAb15, converted to IgG and expressed as a full-length antibody) VH: EVQLVESGGGVVQPGRSLRLSCAASGFTFSDYTMAWVRQAPGKGLEWVATIIYTGRGTYYRDAVKGRFTISRDNSKSTLYLQMNSLRAEDTAVYYCARQSDDTYYYWGYFDYWGQGTMVTVSS VL: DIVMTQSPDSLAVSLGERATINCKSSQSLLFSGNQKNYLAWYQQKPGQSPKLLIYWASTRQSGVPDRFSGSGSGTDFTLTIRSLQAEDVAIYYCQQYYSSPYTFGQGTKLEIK; 41000

Q: Quick one: kon for huAb15v2 (antibody, V domains shown, Humanized, further engineered clone of chAb15, converted to IgG and expressed as a full-length antibody) VH: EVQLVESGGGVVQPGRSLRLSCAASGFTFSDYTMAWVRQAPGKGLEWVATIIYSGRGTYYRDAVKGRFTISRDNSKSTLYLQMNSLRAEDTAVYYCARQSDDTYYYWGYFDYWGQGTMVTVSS VL: DIVMTQSPDSLAVSLGERATINCKSSQSLLFSGNQKNYLAWYQQKPGQSPKLLIYWASTRQSGVPDRFSGSGSGTDFTLTIRSLQAEDVAIYYCQQYYDVPYTFGQGTKLEIK ?
Ans: 42000
